molecular target: NAD-dependent protein deacylase sirtuin-5, mitochondrial (Homo sapiens) (UniProt Q9NXA8); assay: blockers of sirtuin-5 deacylase activity – biochemical, fluorescence imaging, single point, set 5, primary screen (AID 652115); settings: Purified SirT5, succinyl-peptide AMC, trypsin-coupled fluorescence; at 15 µM
Sequence (Q9NXA8 whole entry, looked up): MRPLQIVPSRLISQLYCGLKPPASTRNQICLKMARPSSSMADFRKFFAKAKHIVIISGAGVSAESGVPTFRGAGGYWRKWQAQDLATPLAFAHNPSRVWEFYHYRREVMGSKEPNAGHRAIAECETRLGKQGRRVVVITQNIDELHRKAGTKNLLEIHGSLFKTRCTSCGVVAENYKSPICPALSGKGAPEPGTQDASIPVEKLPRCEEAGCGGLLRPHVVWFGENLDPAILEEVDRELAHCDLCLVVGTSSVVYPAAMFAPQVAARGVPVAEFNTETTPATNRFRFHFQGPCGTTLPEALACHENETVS
The whole screen tested about 330,000 compounds, of which about 3,800 (1.2%) were called active. Rule as the data show it: active = inhibition above about 15%; inconclusive = no clear call, values can overlap the other calls; inactive = below that. The list comes from a sample in which actives are over-represented; it also holds close analogues and randomly drawn compounds.
A correct response names exactly one class from Y = active, N = inactive

Ask | // return assay outcome for `O=C(C[C@@H]1CC[C@@H]2[C@H](COC[C@@H](O)CN2Cc2ccc(F)cc2)O1)NCc1ccncn1`
Reply | N

Ask | Per the assay record, what outcome was assigned to `Cn1cnc(CCNC(=O)C[C@@H]2CC[C@H]3[C@@H](COC[C@@H](O)CN3C(=O)Nc3ccc(Cl)cc3)O2)c1` ?
Reply | N

Ask | Per the assay record, what outcome was assigned to `Cc1ccc(NC(=O)Cn2sc3ccccc3c2=O)cc1` ?
Reply | Y

Ask | Recorded test outcome, item `O=C(Cc1ccccc1)N[C@H]1C=C[C@H](CC(=O)N2CCCCC2)O[C@@H]1CO`
Reply | N

Ask | GET /call?item= `CN1c2ccc(-c3ccccc3)cc2[C@H]2[C@H](CCN2C(=O)Cc2ccccn2)[C@H]1CO` returns the recorded outcome of this test.
Reply | Y

Ask | Hello, I am checking results. What call was entered for `CCC(=O)N1C[C@@H](C)[C@H](OC)CN(C)C(=O)c2cc(NC(=O)NC3CCCC3)ccc2OC[C@H]1C` ?
Reply | N

Ask | Test call for this molecule, please: `O=C(C[C@@H]1CC[C@H]2[C@@H](COC[C@@H](O)CN2S(=O)(=O)c2cccc(Cl)c2)O1)N1CCCCC1`
Reply | N

Ask | Recorded test outcome, item `COc1ccc2c3c(n(C)c2c1)[C@@H](CO)N(Cc1ccncc1)CC31CN(C(=O)C2CCC2)C1`
Reply | N

Ask | Per the records of this test, what outcome belongs to `COc1ccc(C#Cc2cnc3c(c2)C(=O)N([C@H](C)CO)C[C@H](C)[C@H](CN(C)C(=O)CC2CC2)O3)cc1` ?
Reply | N

Ask | Just curious, what result did `Cc1sc(NC(=O)c2ccc3ncsc3c2)c(C(N)=O)c1C` get here?
Reply | N

Ask | Outcome logged for `C[C@@H]1CN([C@H](C)CO)S(=O)(=O)c2ccc(C#CC3CCCC3)cc2O[C@@H]1CN(C)C(=O)Cc1ccncc1` in this assay:
Reply | N

Ask | Which outcome was entered for the molecule `Cn1cnc(S(=O)(=O)N2C[C@H](O)COC[C@@H]3O[C@H](CC(=O)NC4Cc5ccccc5C4)CC[C@H]32)c1` in this test?
Reply | N

Ask | Field: outcome | Entry: `O=C(NC1CCCCC1)N1CC2(C1)[C@@H](c1ccccc1)[C@@H](CO)N2CC1CCOCC1`
Reply | N

Ask | Hi, sorry to bother you, what did the test record for `CN(Cc1ccccc1F)C[C@H]1[C@@H](c2ccccc2)[C@@H](CO)N1S(C)(=O)=O` ?
Reply | N

Ask | Outcome logged for `Cn1cnc(CCNC(=O)C[C@@H]2CC[C@@H]3[C@H](COC[C@@H](O)CN3C(=O)Nc3ccccc3)O2)c1` in this assay:
Reply | Y

Ask | Tell me the assay call for `COc1cccc(C(=O)Nc2nc3ccc(S(C)(=O)=O)cc3s2)c1` please.
Reply | N

Ask | What did the test return for `Cc1noc(C)c1S(=O)(=O)N(C)C[C@@H]1OCCCC[C@@H](C)Oc2ccc(NC(=O)c3ccccc3)cc2C(=O)N([C@H](C)CO)C[C@H]1C` ?
Reply | N

Ask | What outcome does the record of this test show for `C[C@@H](NC(=O)C[C@H]1C[C@H]2c3cc(NC(=O)Nc4ccccc4F)ccc3O[C@H]2[C@@H](CO)O1)c1ccccc1` ?
Reply | N

Ask | Look up the recorded call for `CN1CCN(C(=O)C[C@H]2CC[C@@H](NC(=O)c3ccc4c(c3)OCO4)[C@H](CO)O2)CC1` in this test.
Reply | N

Ask | I would be grateful if you could indicate the recorded call for `O=C(C[C@H]1CC[C@H]2[C@@H](COC[C@@H](O)CN2C(=O)Nc2ccc(C(F)(F)F)cc2)O1)NC1Cc2ccccc2C1` .
Reply | N

Origin of values: PubChem BioAssay AID652115
